Tested on: Chenopodium album (CHEAL), common lambsquarters
assay-text: Postemergence herbicide evaluation, growth of Chenopodium album (CHEAL)
Format: in vivo
study-conditions: Chenopodium album, post-emergence, 504 h, 560 g ae/ha, 21 DAA, percent reduction in plant size relative to untreated control; read-out: Ave. CHEAL
Listed compounds paired with reported pest or weed control at 560 g/ha

>  <chemical-smiles>
O=C(COc1ccc(Cl)cc1Cl)ON1CCCCC1

>  <value-units>
%

>  <pest or weed control at 560 g/ha>
97

$$$$
>  <chemical-smiles>
O=C(COc1ccc(Cl)cc1Cl)ON(Cc1ccccc1)Cc1ccccc1

>  <value-units>
%

>  <pest or weed control at 560 g/ha>
63

$$$$
>  <chemical-smiles>
CCOC(=O)C(=NOC(=O)COc1ccc(Cl)cc1Cl)C(=O)OCC

>  <value-units>
%

>  <pest or weed control at 560 g/ha>
78

$$$$
>  <chemical-smiles>
O=C(COc1ccc(Cl)cc1Cl)O/N=C/c1ccc(/C=N/OC(=O)COc2ccc(Cl)cc2Cl)cc1

>  <value-units>
%

>  <pest or weed control at 560 g/ha>
70

$$$$
>  <chemical-smiles>
O=C(Cc1ccccc1)NOC(=O)COc1ccc(Cl)cc1Cl

>  <value-units>
%

>  <pest or weed control at 560 g/ha>
91

$$$$
